experimentalDetails: clinical
runConditions: human, in vivo, po, 200 mg/m2, Tmax, steady state
assayReadout: Tmax (h)
Record the value in h, omitting the unit from your answer.

In: Give the reported value of Tmax for this record: CNC(=O)c1cc(Oc2ccc(NC(=O)Nc3ccc(Cl)c(C(F)(F)F)c3)cc2)ccn1 [Sorafenib]
Out: 3.4

* * *

experimentalDetails: clinical
runConditions: human, in vivo, 200 mg/m2, Cmax, day 1
assayReadout: Cmax (ng/mL)
Record the value in ng/mL, omitting the unit from your answer.

In: Give the reported value of Cmax for this record: "CNC(=O)c1cc(Oc2ccc(NC(=O)Nc3ccc(Cl)c(C(F)(F)F)c3)cc2)ccn1"
Out: 1000
